- conditionSummary: aqueous buffer, 1 h, pH 8
Form field: % of Baclofen Released (one value per entry).
Write the answer as a number in %, unit excluded.

Guide cases for % of Baclofen Released, answers given:
• CC(C)(C)C(=O)OCOC(=O)NC[C@H](CC(=O)[O-])c1ccc(Cl)cc1.[Na+] = 0
• CC(=O)OCOC(=O)NC[C@H](CC(=O)[O-])c1ccc(Cl)cc1.[Na+] = 9
• CCOC(C)(OCC)C(=O)OCOC(=O)NC[C@H](CC(=O)[O-])c1ccc(Cl)cc1.[Na+] = 9
• CC(=O)OC(OC(=O)NC[C@H](CC(=O)[O-])c1ccc(Cl)cc1)C(C)C.[Na+] (some centres unmarked) = 2

Which % of Baclofen Released is reported for this compound? CC(OC(=O)NC[C@H](CC(=O)[O-])c1ccc(Cl)cc1)OC(=O)C(C)C.[Na+] (some centres unmarked) 0

Do the same for `CC(C)C(=O)O[C@H](OC(=O)NC[C@H](CC(=O)[O-])c1ccc(Cl)cc1)C(C)C.[Na+]` please 0

Do the same for CC(C)C(=O)OC(OC(=O)NC[C@H](CC(=O)[O-])c1ccc(Cl)cc1)C1CCCCC1.[Na+] (some centres unmarked) please 1

Do the same for CC(C)C(=O)OC(OC(=O)NC[C@H](CC(=O)[O-])c1ccc(Cl)cc1)C(C)C.[Na+] (some centres unmarked) please 0

Do the same for `CCC[C@H](OC(=O)NC[C@H](CC(=O)[O-])c1ccc(Cl)cc1)OC(=O)C(C)C.[Na+]` please 1

Do the same for `O=C([O-])C[C@@H](CNC(=O)OCOC(=O)c1cccs1)c1ccc(Cl)cc1.[Na+]` please 0

Do the same for CCCC(=O)OC(OC(=O)NC[C@H](CC(=O)[O-])c1ccc(Cl)cc1)C1CCCCC1.[Na+] (some centres unmarked) please 0

Do the same for `O=C([O-])C[C@@H](CNC(=O)OCOC(=O)c1ccccc1)c1ccc(Cl)cc1.[Na+]` please 0

Do the same for `CC(C)C(=O)O[C@H](C)OC(=O)NC[C@H](CC(=O)[O-])c1ccc(Cl)cc1.[Na+]` please 0

Do the same for `CC(C)CC(=O)OCOC(=O)NC[C@H](CC(=O)[O-])c1ccc(Cl)cc1.[Na+]` please 2
